The measured values listed here are drawn from ChEMBL document CHEMBL1136683.

- PROCEDURE_TEXT: Vss after intravenous administration (5.0 mg/kg) was determined in rat
- Format: ADME, organism-based
- RUN_PARAMETERS: in vivo, read-out: Vss
REPORTED_ENDPOINT: Vd (L/kg)
Number in L/kg, nothing else.

Data point: O=C(N[C@H]1c2ccccc2C[C@H]1O)[C@H](Cc1cccc(O)c1)[C@@H](C(=O)NO)C1CCNCC1 ; Vd = 0.3

* * *

- SYSTEM_UNDER_TEST: Matrix metalloproteinase-9 (Homo sapiens)
- Sequence (P14780 whole entry): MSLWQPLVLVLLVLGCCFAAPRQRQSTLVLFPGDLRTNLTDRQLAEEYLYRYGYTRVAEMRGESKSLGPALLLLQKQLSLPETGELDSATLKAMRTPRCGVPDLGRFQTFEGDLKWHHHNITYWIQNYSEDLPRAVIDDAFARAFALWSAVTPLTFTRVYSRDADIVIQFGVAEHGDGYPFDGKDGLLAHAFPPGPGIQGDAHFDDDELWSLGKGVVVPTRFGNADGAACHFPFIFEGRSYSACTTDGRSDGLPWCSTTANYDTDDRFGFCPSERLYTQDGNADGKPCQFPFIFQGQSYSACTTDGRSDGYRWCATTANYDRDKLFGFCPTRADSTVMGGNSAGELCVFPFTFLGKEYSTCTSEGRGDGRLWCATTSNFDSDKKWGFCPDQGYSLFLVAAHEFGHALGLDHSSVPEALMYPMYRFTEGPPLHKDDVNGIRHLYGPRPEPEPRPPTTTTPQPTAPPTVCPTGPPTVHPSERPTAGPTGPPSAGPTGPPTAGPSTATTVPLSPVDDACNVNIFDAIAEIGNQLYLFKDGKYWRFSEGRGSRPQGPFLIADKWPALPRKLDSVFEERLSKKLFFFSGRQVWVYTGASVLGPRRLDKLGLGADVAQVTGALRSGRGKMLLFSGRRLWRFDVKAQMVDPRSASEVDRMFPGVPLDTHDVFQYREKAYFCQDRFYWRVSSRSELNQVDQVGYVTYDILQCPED
Ki: recorded values
Respond with the bare value in nM.

{"MOL_SMILES": "CC(C)(C)OC(=O)N1CCC([C@H](C(=O)NO)[C@@H](Cc2cccc(O)c2)C(=O)N[C@H]2c3ccccc3C[C@H]2O)CC1", "REPORTED_MEASUREMENT": 1300}

// below: Ki requested for another compound
Fill in: Matrix metalloproteinase-9 (Homo sapiens) Ki for CCOC(=O)N1CCC([C@H](C(=O)NO)[C@@H](Cc2cccc(O)c2)C(=O)N[C@H]2c3ccccc3C[C@H]2O)CC1 = 832
